target: actin filaments (contractile ring) (Schizosaccharomyces pombe, UniProt P10989); test: live-cell fluorescence titration
No end group written: not given here.
result.type: Kd (µM)
State just the number; it will be interpreted in µM.

Any idea what Kd was measured for MGVADLIKKFESISKEE (also: mEGFP fusion) [mEGFP-Lifeact] ?
6.2
